Tested on: NCI-H1944
Assay: normalised cell viability (NPI; 0 = phenylarsine oxide control, 1 = DMSO control) (fraction of DMSO control); higher = more viable cells (less compound toxicity)
Conditions: glucocorticoid arm: hydrocortisone 2.75 uM pre-treated 2 days and continued; compound 5 µM; 6 days
Over roughly 1,900 compounds, “normalised cell viability (NPI; 0 = phenylarsine oxide control, 1 = DMSO control)” has its median near 1; the lowest 2% begin near 0.039. The entries come from a sample that favours the lowest values as a whole.
Please provide measured normalised cell viability for the entries that follow.

molecule	assayReadout	assayResult
CC(C)[C@H]1c2ccc(F)cc2CC[C@@]1(CCN(C)CCCc1nc2ccccc2[nH]1)OC(=O)C1CC1	normalised cell viability	1.08

I'm hoping you can list normalised cell viability for every molecule here, please.
1. Cc1nc(N=Nc2cc(S(=O)(=O)O)c3cc([N+](=O)[O-])cc(S(=O)(=O)O)c3c2)c(COP(=O)(O)O)c(C=O)c1O [PPNDS tetrasodium]
2. CCc1c(C(=O)NCCc2ccc(N3CCCCC3)cc2)[nH]c2ccc(Cl)cc12
3. C=CC(=O)Nc1ccc2ncnc(Nc3ccc(OCc4cccc(F)c4)c(Cl)c3)c2c1
4. COC(=O)C[C@](O)(CCCC(C)(C)O)C(=O)O[C@@H]1C(OC)=C[C@]23CCCN2CCc2cc4c(cc2[C@H]13)OCO4 [Omacetaxine mepesuccinate]
5. NC(CCCP(=O)(O)O)C(=O)O (racemic) [(±)-2-Amino-5-phosphonopentanoic acid]

1: 0.857; 2: 0.999; 3: 0.93; 4: 1.03; 5: 0.993

I'm hoping you can list normalised cell viability for every molecule here, please.
1. CS(=O)(=O)CCNCc1ccc(-c2ccc3ncnc(Nc4ccc(OCc5cccc(F)c5)c(Cl)c4)c3c2)o1 [Lapatinib ditosylate; Lapatinib; Lapatinib Ditosylate]
2. Cc1[nH]c2ccccc2c1C1=C(NCCc2ccc(F)cc2)C(=O)N(C)C1=O

1. 0.0327
2. 0.973

I'm hoping you can list normalised cell viability for every molecule here, please.
1. CCN(CC)Cc1ccc2cc(COC(=O)Nc3ccc(C(=O)NO)cc3)ccc2c1
2. Cc1[nH]c2ccccc2c1CCNCc1ccc(/C=C/C(=O)NO)cc1
3. Nc1nc2c(nc(Br)n2C2OC3COP(=O)(O)O[C@@H]3C2O)c(=O)[nH]1 (some centres not stated) [8-Bromo-cGMP sodium]
4. C=CS(=O)(=O)NC1CCN(C(=O)CNc2cc(I)c(Cl)cc2OC)CC1 [K-Ras(G12C) inhibitor 9]
5. CC(C)CC(=O)Nc1n[nH]c2c1CN(C(=O)C1CCN(C)CC1)C2(C)C
6. O=C(NC1CCNCC1)c1n[nH]cc1NC(=O)c1c(Cl)cccc1Cl
7. CNc1ncnc2c1ncn2[C@H]1C[C@H](OP(=O)(O)O)[C@@H](COP(=O)(O)O)O1
8. COc1ccc(Cn2ccc3ccc(C(=O)NO)cc32)cc1

[0.0193, 0.00214, 1, 1.04, 0.962, 0.149, 0.981, 1.04]

Look up and report measured normalised cell viability (NCI-H1944) for the following molecule: [Cl-].[Li+] [Lithium Chloride] 1.01

* * *

Please provide measured normalised cell viability for the entries that follow.
Test system: NCI-H1944
Experiment: normalised cell viability (NPI; 0 = phenylarsine oxide control, 1 = DMSO control) (fraction of DMSO control); higher = more viable cells (less compound toxicity)
Conditions: glucocorticoid arm: vehicle; compound 1 µM; 6 days
In all, about 1,900 compounds were measured (“normalised cell viability (NPI; 0 = phenylarsine oxide control, 1 = DMSO control)”: median about 1, lowest 2% from about 0.039 on). Many of the other results were omitted from the sample, so the lowest values are more common in it than they were.
Answers are plain numbers.

Here's what some known entries look like.
smilesText	studySystem	assayResult
CCOC(=O)C1=CN(Cc2ccccc2)C=C(C(=O)OCC)C1c1ccccc1	NCI-H1944	0.993
CN(C)Cc1ccc(S(=O)(=O)n2ccc(/C=C/C(=O)NO)c2)cc1	NCI-H1944	1
C#C[C@]1(O)CC[C@H]2[C@@H]3CCC4=Cc5oncc5C[C@]4(C)[C@H]3CC[C@@]21C	NCI-H1944	1.01
CC(=O)O[C@@]12CO[C@@H]1C[C@H](O)[C@@]1(C)C(=O)[C@H](O)C3=C(C)[C@@H](OC(=O)[C@H](O)[C@@H](NC(=O)OC(C)(C)C)c4ccccc4)C[C@@](O)([C@@H](OC(=O)c4ccccc4)[C@H]21)C3(C)C	NCI-H1944	0.049
CC(=O)O[C@H]1C(=O)[C@@]2(C)[C@H]([C@H](OC(=O)c3ccccc3)[C@]3(O)C[C@H](OC(=O)[C@H](O)[C@@H](NC(=O)c4ccccc4)c4ccccc4)C(C)=C1C3(C)C)[C@]1(OC(C)=O)CO[C@@H]1C[C@@H]2O	NCI-H1944	0.0515

Attention now turns to another entry.
Look up and report measured normalised cell viability (NCI-H1944) for the following compound: O=C(/C=C/c1ccc(CN(CCO)CCc2c[nH]c3ccccc23)cc1)NO 0.0063

* * *

Test system: NCI-H1944
Assay: normalised cell viability (NPI; 0 = phenylarsine oxide control, 1 = DMSO control) (fraction of DMSO control); higher = more viable cells (less compound toxicity)
Conditions: glucocorticoid arm: hydrocortisone 2.75 uM pre-treated 2 days and continued; compound 1 µM; 6 days
Structures can show the parent of a compound that is named as a salt. The full ranking holds about 1,900 compounds; the median of “normalised cell viability (NPI; 0 = phenylarsine oxide control, 1 = DMSO control)” is about 1, and the lowest 2% start at about 0.039. The sample as a whole holds a higher share of the lowest values than the screen did.
Please provide measured normalised cell viability for the entries that follow.

I'm hoping you can list normalised cell viability for every compound here, please.
1. O=C(CCCCCCC(=O)NO)NO [Suberoyl bis-hydroxamic acid]
2. CC(=O)Nc1ccc(C(=O)Nc2ccccc2N)cc1 [CI994 (Tacedinaline)]
3. O=S(=O)(NCCNCC=Cc1ccc(Br)cc1)c1cccc2cnccc12
4. Cc1ccc(NC(=O)c2ccc(CN3CCN(C)CC3)cc2)cc1Nc1nccc(-c2cccnc2)n1

[0.968, 0.999, 1.03, 1.04]

I'm hoping you can list normalised cell viability for every compound here, please.
1. CC(C)c1cc(-c2ccc(F)c3ccccc23)nc(N)n1
2. Nc1ccccc1NC(=O)c1ccc(CNc2nccc(-c3cccnc3)n2)cc1 [Mocetinostat (MGCD0103)]
3. COc1cc2c(cc1OC)-c1c/c(=N\c3c(C)cc(C)cc3C)n(C)c(=O)n1CC2 [Trequinsin hydrochloride]
4. Cn1ncnc1[C@H]1c2n[nH]c(=O)c3cc(F)cc(c23)N[C@@H]1c1ccc(F)cc1

1: 0.991; 2: 1.02; 3: 0.908; 4: 1.01

* * *

Test system: NCI-H1944
Assay: normalised cell viability (NPI; 0 = phenylarsine oxide control, 1 = DMSO control) (fraction of DMSO control); higher = more viable cells (less compound toxicity)
Settings: glucocorticoid arm: vehicle; compound 5 µM; 6 days
In all, about 1,900 compounds were measured (“normalised cell viability (NPI; 0 = phenylarsine oxide control, 1 = DMSO control)”: median about 1, lowest 2% from about 0.039 on). The list comes from a sample in which the lowest values are over-represented; it also holds close analogues and randomly drawn compounds.
Please provide measured normalised cell viability for the entries that follow.
Answers are plain numbers.

Here's what some known entries look like.
molecule	studySystem	normalised cell viability
Nc1ccccc1NC(=O)c1ccc(CNC(=O)OCc2cccnc2)cc1 [Entinostat]	NCI-H1944	0.00136
COc1ccc(C(=O)NCc2cccnc2)cc1C(=O)NCc1cccnc1 [Picotamide]	NCI-H1944	1
CCc1cccc(N(C)C(=N)Nc2cccc3ccccc23)c1	NCI-H1944	1.01

I'm hoping you can list normalised cell viability for every molecule here, please.
1. Cc1ccc(NC(=O)c2ccc(CN3CCN(C)CC3)cc2)cc1Nc1nccc(-c2cccnc2)n1
2. Nc1ccccc1NC(=O)c1ccc(CNc2nccc(-c3cccnc3)n2)cc1 [Mocetinostat (MGCD0103)]

1
0.00194

* * *

System: NCI-H1944;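 further: CTB read-out in 384-well plates, triplicate wells, NPI normalised per plate against 1 µM phenylarsine oxide (0) and 0.1% DMSO (1) controls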
Assay: normalised cell viability (NPI; 0 = phenylarsine oxide control, 1 = DMSO control) (fraction of DMSO control); NCI-H1944 is a non-small cell lung cancer line; higher = more viable cells (less compound toxicity)
Settings: glucocorticoid arm: hydrocortisone 2.75 uM co-treatment; compound 1 µM; 6 days
In all, about 1,900 compounds were measured (“normalised cell viability (NPI; 0 = phenylarsine oxide control, 1 = DMSO control)”: median about 1, lowest 2% from about 0.039 on). The entries come from a sample that favours the lowest values as a whole.
Please provide measured normalised cell viability for the entries that follow.
Answers are plain numbers.

Here's what some known entries look like.
compound	normalised cell viability
CN=c1nc(-c2ccccc2)n(-c2ccccc2)s1	1
Nc1nc2[nH]cnc2c(=S)[nH]1	0.931
CCc1c(C(=O)NCCc2ccc(N3CCCCC3)cc2)[nH]c2ccc(Cl)cc12	1.01
O=C1O/C(=C/Br)CCC1c1cccc2ccccc12 (stereo unspecified)	1.02
N=C1Sc2ccccc2C2=NCCCN12	1.02

Attention now turns to another entry.
Provide only the value of recorded normalised cell viability for CCCCC/C=C\C[C@@H](O)/C=C/c1cccc(C[C@@H](O)CCCCO)n1 1.01
